Test system α-amylase from Bacillus licheniformis (Bacillus licheniformis, UniProt P06278), IC50 listed for each of the compounds.
Report as a plain number; the unit µM is understood.

CC(C)[C@@H]1CC[C@@H](C)CC1=O	968

## Input Quote IC50 with test system α-amylase from Bacillus licheniformis (Bacillus licheniformis, UniProt P06278) for CC(C)=C1CC[C@@H](C)CC1=O
## Output 1200

---

target: elastase (Sus scrofa); experiment: Elastase inhibitory assay; assay type: biochemical
Sequence (P00772 27-266): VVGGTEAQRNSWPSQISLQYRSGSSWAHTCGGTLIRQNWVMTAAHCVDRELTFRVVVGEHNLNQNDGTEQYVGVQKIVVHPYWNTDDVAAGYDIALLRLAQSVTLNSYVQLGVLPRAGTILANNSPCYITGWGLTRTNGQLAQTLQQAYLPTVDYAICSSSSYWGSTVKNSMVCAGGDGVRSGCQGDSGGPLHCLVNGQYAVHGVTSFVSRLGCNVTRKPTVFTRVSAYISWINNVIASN
property-measured: pIC50
Keep in mind that pIC50 stands for -log10 of concentration in molar terms.

CC(C)[C@@H]1CC[C@@H](C)CC1=O [Menthone, menthone]	3.07

Kindly review the next compound as well.
## Input Look up pIC50 of CC(C)=C1CC[C@@H](C)CC1=O [Pulegone, pulegone] and report it.
## Output 3.11

---

IC50 reference
target: α-glucosidase from Saccharomyces cerevisiae (Saccharomyces cerevisiae, UniProt P53341)
Sequence (P53341 whole entry): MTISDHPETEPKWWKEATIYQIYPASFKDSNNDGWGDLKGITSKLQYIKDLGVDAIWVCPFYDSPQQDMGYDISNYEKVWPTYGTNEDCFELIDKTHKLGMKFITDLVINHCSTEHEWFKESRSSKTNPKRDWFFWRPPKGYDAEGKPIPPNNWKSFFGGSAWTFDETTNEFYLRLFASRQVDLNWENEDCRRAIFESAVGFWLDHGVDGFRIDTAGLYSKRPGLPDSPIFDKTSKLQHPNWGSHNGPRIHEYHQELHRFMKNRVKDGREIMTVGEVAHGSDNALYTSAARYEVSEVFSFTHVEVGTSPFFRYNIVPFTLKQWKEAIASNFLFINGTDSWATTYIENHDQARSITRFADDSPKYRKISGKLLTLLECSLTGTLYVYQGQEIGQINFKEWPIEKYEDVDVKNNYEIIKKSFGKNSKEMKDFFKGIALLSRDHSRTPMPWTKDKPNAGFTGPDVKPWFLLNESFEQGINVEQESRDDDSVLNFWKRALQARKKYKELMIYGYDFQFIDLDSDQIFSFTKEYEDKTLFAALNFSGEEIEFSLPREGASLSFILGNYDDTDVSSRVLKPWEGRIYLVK
Write the number in µM without appending the unit.

CC(C)[C@@H]1CC[C@@H](C)CC1=O	703

## Input Fetch value of IC50 on α-glucosidase from Saccharomyces cerevisiae (Saccharomyces cerevisiae, UniProt P53341) for CC(C)=C1CC[C@@H](C)CC1=O .
## Output 783
